So I've got Result on TA 1535 readings for Salmonella typhimurium TA 1535, take a look.
recorded_endpoint: Result on TA 1535

compound="CCOC(N)=O [Urethane]" recorded_endpoint="Result on TA 1535" result=-
compound="CCOS(C)(=O)=O [Ethyl methanesulphonate]" recorded_endpoint="Result on TA 1535" result=+
compound="Nc1ccc2ccccc2c1 [2-Naphthylamine]" recorded_endpoint="Result on TA 1535" result=+
compound="Nc1ccc(-c2ccccc2)cc1 [4-Aminobiphenyl]" recorded_endpoint="Result on TA 1535" result=-
compound="CN(C)N=O [Dimethylnitrosamine]" recorded_endpoint="Result on TA 1535" result=-
compound="Nc1cc2c3ccccc3ccc2c2ccccc12 [6-Aminochrysene]" recorded_endpoint="Result on TA 1535" result=-
compound="NN [Hydrazine]" recorded_endpoint="Result on TA 1535" result=+
compound="CN(C)c1ccc(N=Nc2ccccc2)cc1 [4-Dimethylaminoazobenzene]" recorded_endpoint="Result on TA 1535" result=+

---

So I've got Result on TA 100 readings for Salmonella typhimurium TA 100, take a look.
recorded_endpoint: Result on TA 100

compound="CCOS(C)(=O)=O [Ethyl methanesulphonate]" recorded_endpoint="Result on TA 100" result=+
compound=O=C1CCO1 recorded_endpoint="Result on TA 100" result=+
compound="NN [Hydrazine]" recorded_endpoint="Result on TA 100" result=+
compound=Nc1ccc2cc3ccccc3cc2c1 recorded_endpoint="Result on TA 100" result=+
compound=CN(C)c1ccc(N=Nc2ccccc2)cc1 recorded_endpoint="Result on TA 100" result=+

---

So I've got Result on TA 98 readings for Salmonella typhimurium TA 98, take a look.
recorded_endpoint: Result on TA 98

compound=O=C1CCO1 recorded_endpoint="Result on TA 98" result=-
compound=Nc1cc2c3ccccc3ccc2c2ccccc12 recorded_endpoint="Result on TA 98" result=+
compound="CCOS(C)(=O)=O [Ethyl methanesulphonate]" recorded_endpoint="Result on TA 98" result=+
compound=CN(C)c1ccc(N=Nc2ccccc2)cc1 recorded_endpoint="Result on TA 98" result=+
compound="NN [Hydrazine]" recorded_endpoint="Result on TA 98" result=+
compound=CCOC(N)=O recorded_endpoint="Result on TA 98" result=-
compound="CN(C)P(=O)(N(C)C)N(C)C [Hexamethylphosphoramide]" recorded_endpoint="Result on TA 98" result=-
compound=Nc1ccc2ccccc2c1 recorded_endpoint="Result on TA 98" result=-
compound=Nc1ccc(-c2ccccc2)cc1 recorded_endpoint="Result on TA 98" result=+
compound=CN(C)N=O recorded_endpoint="Result on TA 98" result=-
